- System: SN12C renal
- test_name: NCI-60 one-dose screen, 48 h (100 = growth as untreated, 0 = no growth, -100 = all killed)
- test_conditions: 10 µM unless noted
The panel holds about 83,000 compounds, 20% with a hit somewhere; the sample as a whole holds those more often. Active and inactive are the calls of the source. Rule for the calls: active = growth percent below 10; inactive = the rest.
assay_endpoint: growth

{"columns": ["smiles_notation", "assay_endpoint", "reported_result"],
 "data": [
  ["O=C(O)c1ccc(-n2cc(CNc3cc(F)c(F)c(F)c3)c(-c3ccc(F)cc3)n2)cc1", "growth", "91.9% (inactive)"],
  ["C=C(C=O)[C@@H]1CC[C@]2(C)[C@H](CC=C3[C@H]4[C@@H](C)[C@H](C)CC[C@]4(C(=O)OC)CC[C@]32C)[C@@]1(C)CCC#N", "growth", "12.9% (inactive)"],
  ["O=C(NNc1nc2cc(F)ccc2n2c(CN3CCCC3)ccc12)c1cnccn1", "growth", "21% (inactive)"]
]}

* * *

compounds and their reported growth
- Test system: NCI-H460 lung
- test_name: NCI-60 one-dose screen, 48 h (100 = growth as untreated, 0 = no growth, -100 = all killed)
- test_conditions: 10 µM unless noted
Compounds without any hit were thinned out: in the full panel of roughly 83,000, 20% have a hit.
assay_endpoint: growth (%)

{"columns": ["smiles_notation", "assay_endpoint", "reported_result"],
 "data": [
  ["Cc1ccc(S(=O)(=O)N(CC[C@@H]2C[C@H]2c2cc3ccccc3o2)S(=O)(=O)c2ccc(C)cc2)cc1", "growth", 104],
  ["COc1ccccc1-n1cc(C#N)c(N)c1C(=O)c1ccc(Br)cc1", "growth", 79.7],
  ["Cc1ccc(NC(=O)c2ccc(CN3CCN(C)CC3)cc2)cc1Oc1ccc(-c2[nH]nc3ncnc(N)c23)cc1", "growth", 110],
  ["N#Cc1cccc(CN2CCC3=C(C2)C(=O)N(Cc2ccc(Cl)cc2)C2=NCCN23)c1", "growth", 15]
]}

* * *

compounds and their reported growth
- System: HOP-62 NSCLC
- test_name: NCI-60 one-dose screen, 48 h (100 = growth as untreated, 0 = no growth, -100 = all killed)
- test_conditions: 10 µM unless noted
The panel holds about 83,000 compounds, 20% with a hit somewhere; the sample as a whole holds those more often. Activity calls are given as the source filed them. How the source made its calls: active means growth percent below 10; inactive means the rest.

{"columns": ["compound", "growth"],
 "data": [
  ["COc1ccc(C2CC(c3cccc(Nc4nc(Cl)nc5cc(OC)c(OC)cc45)c3)=Nc3c(N)nc(N)nc3N2)cc1 (stereo not drawn)", "53.4% (inactive)"],
  ["COc1ccccc1-n1cc(C#N)c(N)c1C(=O)c1ccc(C)cc1", "77.7% (inactive)"],
  ["N#Cc1cccc(NC(=O)c2cc(-c3ccc(F)cc3F)ccc2O)c1", "20.9% (inactive)"]
]}

* * *

- Tested on: SK-OV-3 ovarian
- test_name: NCI-60 one-dose screen, 48 h
- test_conditions: 10 µM unless noted
This is part of a sample that, as a whole, favours compounds with a hit. Of some 83,000 tested, about 20% had one in any assay. Calls of active or inactive are those of the source. How the source made its calls: active means growth percent below 10; inactive means the rest.
Outcomes: active, inactive

{"columns": ["molecule", "qualitative_label"],
 "data": [
  ["COc1c(N2CC3CCCNC3C2)c(F)cc2c(=O)c(C(=O)N/N=C/c3ccc(Br)cc3)cn(C3CC3)c12 (stereo not drawn)", "inactive"],
  ["COc1ccc(C(=O)c2c(N)c(C#N)cn2-c2ccccc2OC)cc1", "inactive"],
  ["O=C(NNc1nc2cc(F)ccc2n2c(CN3CCCC3)ccc12)c1cnccn1", "inactive"],
  ["NC/C(=C/F)COc1ccc2nc(NCc3cccnc3)oc2c1", "inactive"],
  ["COc1cc(-c2nn(C(C)(C)C)cc2-c2ccnc(NCCCNS(=O)(=O)c3cccc(F)c3)n2)ccc1Cl", "inactive"],
  ["NC(N)=Nc1ccc(Nc2cccc(Oc3ccc(Cl)c(C(F)(F)F)c3)c2)cn1", "inactive"],
  ["COc1cc2oc(-c3cccc(C(=O)N[C@@H](CC(C)C)C(=O)OC(C)(C)C)c3)cc(=O)c2c(OC)c1OC", "inactive"],
  ["COc1cc(-c2nc(SCCC(C)C)nc(NNC(=O)c3ccncc3)c2C#N)cc(OC)c1OC", "inactive"],
  ["CC(=O)c1ccc(Nc2nc(SCC(C)C)nc(-c3ccccc3)c2C#N)cc1", "inactive"],
  ["NS(=O)(=O)c1ccc(-n2cc(CN3CCCCC3)nn2)cc1", "inactive"],
  ["CC(=O)O[C@@H]1C(=O)N(c2cnccn2)[C@H]1c1ccccc1[N+](=O)[O-]", "inactive"],
  ["COc1cc(-c2nc(-c3ccccc3)[nH]c2-c2ccnc(NCCCNS(=O)(=O)c3cccc(F)c3)n2)ccc1Cl", "inactive"],
  ["COc1ccccc1NC1=C(Cl)C(=O)c2nc(C)ccc2C1=O", "inactive"],
  ["CCOC(=O)C(=O)/C(=C\\c1ccc(Cl)cc1)C(=O)N1C(=S)NC(=O)C1CC(C)C (stereo not drawn)", "inactive"],
  ["CC1=NC2=NN3C(=NN2C(c2ccccc2)=C1)N=NC(c1ccc(Br)cc1)=C3c1ccc(Br)cc1", "inactive"],
  ["COc1cc2c(cc1OC)C(Sc1ccc(F)cc1)c1c(nc(N)c(C#N)c1N)O2 (stereo not drawn)", "active"],
  ["Cc1ccc(-c2nn(-c3ccccc3)cc2/C=C/C(=O)c2ccc(NC(=O)CCCCCCC(=O)NO)cc2)cc1", "inactive"],
  ["COc1cc(Cn2cc3c(c2)-c2onc(CN4CCOCC4)c2CC3)cc(OC)c1OC", "inactive"],
  ["O=C(/C=C/c1ccc(F)cc1)c1ccc(O)cc1", "inactive"],
  ["CS(=O)(=O)c1ccc(-n2cc(/C=N/O)c(-c3ccccc3)n2)cc1", "inactive"],
  ["CC(C)(C)c1ccc(C(=O)Nc2sc3c(c2C(N)=O)CC/C(=N\\O)C3)cc1", "inactive"],
  ["COc1cc(-c2nc(SC(C)C)n(C(C)C)c(=O)c2C#N)ccc1OCc1ccccc1", "inactive"],
  ["N#Cc1cccc(CN2CCc3ncn(Cc4ccc(Cl)cc4)c(=O)c3C2)c1", "inactive"]
]}

* * *

- System: HOP-92 NSCLC
- test_name: NCI-60 one-dose screen, 48 h
- test_conditions: 10 µM
The panel holds about 83,000 compounds, 20% with a hit somewhere; the sample as a whole holds those more often. Activity calls are given as the source filed them. Rule for the calls: active = growth percent below 10; inactive = the rest.
Outcomes: active, inactive

{"columns": ["molecule", "experimental_system", "qualitative_label"],
 "data": [
  ["COc1ccc(N2C(=O)c3cc(Cl)ccc3NC2SCc2ccccc2)cc1 (stereo unspecified)", "HOP-92 NSCLC", "inactive"],
  ["NC(N)=Nc1ccc(Oc2cccc(NC(N)=Nc3ccc(I)cc3F)c2)cn1", "HOP-92 NSCLC", "active"],
  ["O=S(=O)(NCCNc1nccc(-n2cnc3ccccc32)n1)c1ccc(Cl)cc1", "HOP-92 NSCLC", "inactive"],
  ["O=c1[nH]c(Sc2sc3ccc(Cl)cc3c2CBr)nc(=S)[nH]1", "HOP-92 NSCLC", "active"],
  ["COc1ccc(-c2cc(-c3ccc(Cl)cc3)c(C#N)c(=O)n2Cc2ccc(C(=O)O)cc2)cc1", "HOP-92 NSCLC", "inactive"],
  ["Nc1ncc(-c2ccc3ncnc(Nc4cccc(Cl)c4F)c3c2)cn1", "HOP-92 NSCLC", "inactive"],
  ["COc1ccc2c(c1)Oc1nc(N)c(C#N)c(N)c1C2Sc1ccc(C)cc1 (stereo unspecified)", "HOP-92 NSCLC", "active"],
  ["Cc1ccc(CSc2nc(-c3ccc(Cl)cc3)c(C#N)c(N3CCNCC3)n2)cc1", "HOP-92 NSCLC", "inactive"],
  ["CC1=CC(=O)C2=C(C)CC(OC(=O)CCc3ccccc3)[C@@H]3[C@H](OC(=O)[C@@H]3C)[C@@H]12 (stereo partly specified)", "HOP-92 NSCLC", "inactive"],
  ["O=S(=O)(Oc1ccc(-c2nnc(Nc3ccccc3)s2)cc1)C(F)(F)C(F)(F)C(F)(F)C(F)(F)C(F)(F)C(F)(F)F", "HOP-92 NSCLC", "inactive"],
  ["COc1ccc2c(c1)c(CC(=O)[Se]CC(=O)O)c(C)n2C(=O)c1ccc(Cl)cc1", "HOP-92 NSCLC", "inactive"],
  ["COc1ccc(N2CCN(C3=C(Cl)C(=O)C(C)=C(C)C3=O)CC2)cc1", "HOP-92 NSCLC", "inactive"],
  ["CCOC(=O)C(=O)/C(=C\\c1ccc(Cl)cc1)C(=O)N1C(=S)NC(=O)C1CC(C)C (stereo unspecified)", "HOP-92 NSCLC", "inactive"],
  ["NS(=O)(=O)c1ccc(Nc2nc(N/N=C/c3ccc(Cl)cc3)nc(Nc3ccccc3)n2)cc1", "HOP-92 NSCLC", "inactive"],
  ["ClC(Cl)c1nc(-c2ccco2)n2nc(-c3ccccc3)cc2n1", "HOP-92 NSCLC", "active"],
  ["Cc1ccc(-n2c(/C=C3\\C(=O)Nc4ccccc43)ccc2CO)cc1", "HOP-92 NSCLC", "inactive"],
  ["O=C(c1ccc(Cl)cc1)C1[C@H](c2ccc(Cl)cc2)[C@@H](c2ccccc2)NC12C(=O)Nc1ccccc12 (stereo partly specified)", "HOP-92 NSCLC", "inactive"],
  ["C=C(C)[C@@H]1CC[C@]2(C(=O)NCCCCCN(CCC#N)CCC#N)CC[C@]3(C)[C@H](CC[C@@H]4[C@@]5(C)CCC(=O)C(C)(C)[C@@H]5CC[C@]43C)[C@@H]12", "HOP-92 NSCLC", "inactive"],
  ["CCCn1cnc2c(c1=N)C(c1ccc(F)cc1)c1sc3c(CC)cccc3c1O2 (stereo unspecified)", "HOP-92 NSCLC", "inactive"],
  ["C=C(C)[C@@H]1CC[C@]2(COCCCNCCC#N)CC[C@]3(C)[C@H](CC[C@@H]4[C@@]5(C)CC[C@H](OCCCNCCC#N)C(C)(C)[C@@H]5CC[C@]43C)[C@@H]12", "HOP-92 NSCLC", "inactive"],
  ["CCCCNNC(=O)c1ccc(-c2cccc(F)c2F)cc1", "HOP-92 NSCLC", "active"],
  ["CCCn1cnc2c(c1=N)C(c1ccc(F)cc1)c1sc3c(C)cccc3c1O2 (stereo unspecified)", "HOP-92 NSCLC", "inactive"],
  ["O=C(Cn1cc(-c2ccccc2)nn1)Nc1nc(-c2ccc(Cl)cc2)cs1", "HOP-92 NSCLC", "inactive"],
  ["CCn1c(SCC(=O)Nc2cccc(C(=O)/C=C/c3ccc(Br)cc3)c2)nc2ccccc2c1=O", "HOP-92 NSCLC", "inactive"],
  ["COC(=O)C[Se]C(=O)Cc1c(C)n(C(=O)c2ccc(Cl)cc2)c2ccc(OC)cc12", "HOP-92 NSCLC", "inactive"],
  ["COc1cc(-c2nn(C(C)(C)C)cc2-c2ccnc(NCCCNS(=O)(=O)c3cccc(F)c3)n2)ccc1Cl", "HOP-92 NSCLC", "inactive"]
]}

Origin of the recorded values: PubChem BioAssay (NCI)
